# System: Klebsiella aerogenes DSM 30053
# procedure.text: fold change of Putrescine concentration vs plate DMSO controls (fold change (ratio)); higher = more amine produced, active = hit call of the paper (significant change in both replicates, either direction)
# condition.summary: 20 µM; incubation time: 27 h, anaerobic, 37 °C
Counter-ions that a name gives are not always drawn.
I'd appreciate it if you could supply fold change of Putrescine concentration values for the items below.
Give bare numbers.

compound	fold change of Putrescine concentration
COC[C@@H](NC(C)=O)C(=O)NCc1ccccc1 [Lacosamide]	1.02
CN1C[C@H](C(=O)N[C@]2(C)O[C@@]3(O)[C@@H]4CCCN4C(=O)[C@H](Cc4ccccc4)N3C2=O)C[C@@H]2c3cccc4[nH]cc(c34)C[C@H]21 [Dihydroergotamine tartrate]	0.984
Oc1ccc(Cc2ccc(O)cc2)cc1	0.986

Quick note, fold change of Putrescine concentration for "CO[C@]12C[C@@H](COC(=O)c3cncc(Br)c3)CN(C)[C@@H]1Cc1cn(C)c3cccc2c13" landed at 0.99

###

# Test system: Clostridium sporogenes DSM 1664
# procedure.text: growth (OD595) fold change vs plate DMSO controls (fold change (ratio)); higher = more growth
# condition.summary: 20 µM; incubation time: 27 h, anaerobic, 37 °C
Respond with satisfied for growth values of 1 and above, not satisfied for values below.

CCc1cc(C)cc(CC)c1-c1c(OC(=O)C(C)(C)C)n2n(c1=O)CCOCC2 not satisfied
O=C(Nc1ccccc1-c1ccc(Cl)cc1)c1cccnc1Cl not satisfied
Cc1cc(C)c(C2=C(OC(=O)CC(C)(C)C)C3(CCCC3)OC2=O)c(C)c1 not satisfied

Now let's try a different one.
Check this molecule for growth at or above 1: "Fc1ccc(Oc2ccnc3cc(Cl)cc(Cl)c23)cc1"
satisfied

###

# System: Escherichia coli IAI1
# procedure.text: fold change of Cadaverine concentration vs plate DMSO controls (fold change (ratio)); higher = more amine produced, active = hit call of the paper (significant change in both replicates, either direction)
# condition.summary: 20 µM; incubation time: 27 h, anaerobic, 37 °C
Structures can show the parent of a compound that is named as a salt.
Respond with True for fold change of Cadaverine concentration values of 1 and above, False for values below.

Example entries and their recorded answers appear below.
compound	class.label
COc1cc([C@@H]2c3cc4c(cc3[C@H](O)[C@H]3COC(=O)[C@H]23)OCO4)cc(OC)c1OC	False
CC1(C)C(C=C(Cl)Cl)C1C(=O)OCc1cccc(Oc2ccccc2)c1 (mixture of isomers)	True
O=C1c2ccccc2C(=O)N1SC(Cl)(Cl)Cl	False
CCOc1cc(Oc2ccc(C(F)(F)F)cc2Cl)ccc1[N+](=O)[O-]	False
CCCN1C[C@H](CSC)C[C@@H]2c3cccc4[nH]cc(c34)C[C@H]21 [Pergolide mesylate]	True
Cc1nnc(-c2ccccc2)c(=O)n1N	True
CC(N)C(O)c1ccccc1 (stereo not given) [Phenylpropanolamine hydrochloride]	True
OC(c1ccccc1)(c1ccccc1)C1CCNCC1	False

Now let's try a different one.
Check this compound for fold change of Cadaverine concentration at or above 1: CCC(=O)O[C@@](Cc1ccccc1)(c1ccccc1)[C@@H](C)CN(C)C [Levopropoxyphene napsylate]
True

###

# Tested on: Ruminococcus gnavus DSM 108212
# procedure.text: growth (OD595) fold change vs plate DMSO controls (fold change (ratio)); higher = more growth
# condition.summary: 20 µM; incubation time: 27 h, anaerobic, 37 °C
readout.label: growth
Numbers only.

These solved cases illustrate the format of a correct answer.
compound	readout.label	recorded.measurement
COCC(=O)N(c1c(C)cccc1C)[C@H](C)C(=O)OC	growth	0.974
C[C@@H]1CC[C@H]2[C@@H](C)C(=O)O[C@@H]3O[C@@]4(C)CC[C@@H]1[C@]32OO4 [Artemisinin]	growth	1.13
CCC(=O)O[C@@](Cc1ccccc1)(c1ccccc1)[C@@H](C)CN(C)C [Levopropoxyphene napsylate]	growth	1.18
CCc1nn(C)c(C(=O)NCc2ccc(Oc3ccc(C)cc3)cc2)c1Cl	growth	1.17

Quick note, growth for "C[C@@H]1[C@@H](c2ccc(Cl)cc2)SC(=O)N1C(=O)NC1CCCCC1" landed at 1

###

# Test system: Escherichia coli IAI1
# procedure.text: fold change of Cadaverine concentration vs plate DMSO controls (fold change (ratio)); higher = more amine produced, active = hit call of the paper (significant change in both replicates, either direction)
# condition.summary: 20 µM; incubation time: 27 h, anaerobic, 37 °C
I'd appreciate it if you could supply fold change of Cadaverine concentration values for the items below.
Answers are plain numbers.

compound	fold change of Cadaverine concentration
CN1COCN(Cc2cnc(Cl)s2)/C1=N\[N+](=O)[O-]	1.03

Quick request: fold change of Cadaverine concentration for each listed item, please.
1. N#Cc1cc(Br)c(O)c(Br)c1
2. COC(=O)Nc1nc2ccccc2[nH]1
3. CNC(=O)c1cc(C#N)cc(C)c1NC(=O)c1cc(Br)nn1-c1ncccc1Cl
4. CN(C)[C@@H]1C(=O)C(C(N)=O)=C(O)[C@@]2(O)C(=O)C3=C(O)c4c(O)cccc4[C@@](C)(O)[C@H]3[C@H](O)[C@@H]12 [Oxytetracycline dihydrate]
5. CC1(C)C(C=C(Cl)Cl)C1C(=O)OC(C#N)c1cccc(Oc2ccccc2)c1 (mixture of isomers)
6. CSc1nc(NC(C)C)nc(NC(C)C)n1

1. 1.29
2. 1
3. 0.886
4. 0.113
5. 0.994
6. 1.01

Quick request: fold change of Cadaverine concentration for each listed item, please.
1. C[C@]12CC[C@H](O)C[C@H]1CC[C@@H]1[C@@H]2CC[C@]2(C)[C@@H](C3=CC(=O)OC3)CC[C@]12O
2. Nc1nc(N)nc(N)n1

1.01
0.95

###

# System: Klebsiella aerogenes DSM 30053
# procedure.text: growth (OD595) fold change vs plate DMSO controls (fold change (ratio)); higher = more growth
# condition.summary: 20 µM; incubation time: 27 h, anaerobic, 37 °C
Respond with yes for growth values of 1 and above, no for values below.

molecule	class.label
O=C1C2(Cl)C3(Cl)C4(Cl)C(Cl)(Cl)C5(Cl)C3(Cl)C1(Cl)C5(Cl)C24Cl (stereo not given)	yes
c1ccc2c(c1)-c1cccc3cccc-2c13 [Fluoranthene]	no

Now let's try a different one.
Check this molecule for growth at or above 1: c1ccc2c(c1)cc1ccc3cccc4ccc2c1c34 [Benzo[a]pyrene]
yes

###

I'd appreciate it if you could supply growth values for the items below.
# System: Klebsiella aerogenes DSM 30053
# procedure.text: growth (OD595) fold change vs plate DMSO controls (fold change (ratio)); higher = more growth
# condition.summary: 20 µM; incubation time: 27 h, anaerobic, 37 °C
Where a name gives a salt, the structure may show the parent alone.
One number for each entry.

These solved cases illustrate the format of a correct answer.
compound	growth
C=C1C[C@@H]2[C@H](CC[C@]3(C)C(=O)CC[C@@H]23)[C@@]2(C)C=CC(=O)C=C12	1.03
C[C@@H]1C[C@@H]([C@H](O)CC2CC(=O)NC(=O)C2)C(=O)[C@@H](C)C1 [Cycloheximide]	0.995
COP(=O)(OC)OC=C(Cl)Cl	0.995
C#CCN(C)[C@H](C)Cc1ccccc1 [Selegiline hydrochloride]	1.02
Cc1cc(C2CC2)nc(Nc2ccccc2)n1	0.977

Quick request: growth for each listed item, please.
1. NC(=O)CN1CC(O)CC1=O (stereo unspecified)
2. COc1ccc(C(=CC(=O)N2CCOCC2)c2ccc(Cl)cc2)cc1OC (mixture of isomers)
3. c1cc2ccc3cccc4ccc(c1)c2c34

[0.98, 1.01, 0.997]

Quick request: growth for each listed item, please.
1. O=C(O)C(F)(F)C(F)(F)C(F)(F)C(F)(F)C(F)(F)C(F)(F)C(F)(F)C(F)(F)C(F)(F)F
2. O=C1c2ccccc2C(=O)N1SC(Cl)(Cl)Cl
3. CC(C1CC1)C(O)(Cn1cncn1)c1ccc(Cl)cc1 (mixture of isomers)
4. OC(Cn1cncn1)(c1ccc(F)cc1)c1ccccc1F (stereo unspecified)
5. C=CC(N)=O [Acrylamide]

1.04
0.997
0.991
1.01
0.977

Quick request: growth for each listed item, please.
1. Cc1cc(C(C#N)c2ccc(Cl)cc2)c(Cl)cc1NC(=O)c1cc(I)cc(I)c1O (stereo unspecified)
2. C[CH2][Hg][S]c1ccccc1C(=O)[O-].[Na+]
3. CC[N+]1(C)CCCC(OC(=O)C(O)(c2ccccc2)c2ccccc2)C1 (stereo unspecified) [Pipenzolate bromide]
4. CC(=O)NC1CCSC1=O (stereo unspecified)
5. CCC(C)(C)C(=O)OC1=C(c2ccc(Cl)cc2Cl)C(=O)OC12CCCCC2
6. COC(=O)Nc1nc2ccccc2[nH]1

[1.03, 0.707, 0.994, 1.07, 1.01, 0.989]

Quick request: growth for each listed item, please.
1. C=CC[C@]1(O)CC[C@H]2[C@@H]3CCC4=CC(=O)CCC4=C3C=C[C@@]21C
2. CCOCn1c(-c2ccc(Cl)cc2)c(C#N)c(Br)c1C(F)(F)F

1.05
1.01

Ref: the supplement of paper PMC12494721
